Values from patent US9315492B2

So I've got a bunch of compounds here, and I need their pEC50 values.
- measurementTarget: S1P1 (Homo sapiens (Human), UniProt P21453)
- Sequence (P21453 whole entry): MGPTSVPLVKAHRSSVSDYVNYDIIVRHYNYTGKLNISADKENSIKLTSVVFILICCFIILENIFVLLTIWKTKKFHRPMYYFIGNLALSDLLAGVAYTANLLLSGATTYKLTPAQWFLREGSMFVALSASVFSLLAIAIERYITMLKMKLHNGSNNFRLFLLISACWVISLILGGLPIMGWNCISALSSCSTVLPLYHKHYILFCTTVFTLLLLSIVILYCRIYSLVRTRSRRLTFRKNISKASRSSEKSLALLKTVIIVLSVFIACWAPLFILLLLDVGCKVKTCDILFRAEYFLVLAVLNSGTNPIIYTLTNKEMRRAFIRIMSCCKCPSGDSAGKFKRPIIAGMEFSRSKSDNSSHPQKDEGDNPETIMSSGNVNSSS
- assayDetails: S1P1 β-arrestin assay (PathHunter CHO-K1 EDG1)
- conditionsUsed: CHO-EDG-1 cells
For clarity, pEC50 is expressed as the negative log10 of concentration in mol/L.

Lab note: measured pEC50 of Cc1cc(-c2nc(-c3ccc4c(c3)CC(N)(CO)CC4)no2)ccc1OC(C)C (stereo not drawn) was 8.00

Item: COc1ccc(-c2nnc(-c3ccc4c(c3)CC(N)(CO)CC4)o2)cc1C (stereo not drawn) | pEC50: 7.57

Reported pEC50 of Cc1cc(-c2noc(-c3ccc4c(c3)CC(N)(CO)CC4)n2)ccc1OC(C)C (stereo not drawn) : 7.70
